All values here come from PubChem BioAssay (NCI).

assay: NCI Yeast Anticancer Drug Screen. Data for the sgs1 mgt1 strain (AID 161); details: S. cerevisiae sgs1 mgt1 strain, at 50.0 µM (retest, dose inferred, filed as 5.0)
Compounds without any hit were thinned out: in the full panel of roughly 79,000, 15% have a hit. Activity calls are given as the source filed them. Rule as the data show it: active = growth inhibition above about 70%; inactive = the rest.
Respond using exactly one of the listed classes: active, inactive

Solved cases (8 shown):
# Molecule, Class assignment
measured = [
    ("CCN(CC)CCNc1ccc(C)c2sc3cccc(O)c3c(=O)c12", "active"),
    ("CN1CCC(OC(=O)c2ccc3ncccc3c2)CC1", "inactive"),
    ("Nc1ccc(N)c2c1C(=O)c1ccccc1C2=O", "inactive"),
    ("O=C1/C(=C\\c2ccccc2)CN(C(=O)CCN2CCCCC2)C/C1=C/c1ccccc1", "active"),
    ("O=C(Cl)C(c1ccccc1)(c1ccccc1)c1ccccc1", "active"),
    ("O=C(/N=C1\\N=Nc2nc(C(C(=O)c3cccs3)c3nc4n(c3O)/C(=N/C(=O)Nc3ccc(Cl)cc3)N=N4)c(O)n21)Nc1ccc(Cl)cc1 (centres undefined)", "inactive"),
    ("CCOC(=O)C(=O)NNc1ccccc1", "inactive"),
    ("OC(CC(O)(C(F)(F)Cl)C(F)(F)Cl)c1ccccc1 (centres undefined)", "active"),
]

Prompt: Give the logged outcome of this assay for the following molecule: c1ccc(COc2ccc(C[P+](c3ccccc3)(c3ccccc3)c3ccccc3)cc2)cc1
Response: active

Prompt: And what about the molecule C=C1CC2(CCOc3ccccc32)OC1=O (centres undefined) ?
Response: active

Prompt: And what about the molecule COc1cc2c(cc1OC(C)=O)C(=O)C(Br)(Br)CCC2 ?
Response: active

Prompt: And what about the molecule Clc1nssc1=Nc1nonc1-c1ccccc1 ?
Response: active

Prompt: And what about the molecule CCOP(=O)(OCC)C(NC(=O)OCC(Cl)(Cl)Cl)n1nnc(C(=O)OC)c1C(=O)OC (centres undefined) ?
Response: active

Prompt: And what about the molecule Cc1cc(Cl)cc2c1NC(=O)C2(O)C(C)C(=O)c1ccc(Cl)cc1 (centres undefined) ?
Response: active

Prompt: And what about the molecule CS(=O)(=O)OCCN(CCOS(C)(=O)=O)c1ccc(C=Nc2ccc(-c3cnc(-c4ccc(Cl)cc4)s3)cc2)c(Cl)c1 ?
Response: active

Prompt: And what about the molecule ClC1=CC(Cl)=C2N=C(C(Cl)(Cl)Cl)N=C3N=C(C(Cl)(Cl)Cl)N=C1N32 ?
Response: active

Prompt: And what about the molecule CC12CCC(=O)C=C1C=CC1C2CCC2(C)C1CCC21CCC(=O)O1 (centres undefined) ?
Response: active

Prompt: And what about the molecule CCCC(=O)Oc1ccc(-c2ccc(Br)cc2)cc1 ?
Response: active

Prompt: And what about the molecule O=C1c2cccc(O)c2C(=O)c2c(O)cc(CO)cc21 ?
Response: active

Prompt: And what about the molecule O=C(CC(=O)c1cc(Cl)ccc1O)c1cccnc1 ?
Response: active

Prompt: And what about the molecule CC(C)(Oc1ccc(-c2cccc3ccccc23)cc1)C(=O)O ?
Response: inactive

Prompt: And what about the molecule CC/C(=C(/CC)c1ccc([O-])cc1)c1ccc([O-])cc1.CC/C(=C(\CC)c1ccc([O-])cc1)c1ccc([O-])cc1.O=C([CH-]C(=O)c1ccccc1)c1ccccc1.O=C([CH-]C(=O)c1ccccc1)c1ccccc1.O=C([CH-]C(=O)c1ccccc1)c1ccccc1.O=C([CH-]C(=O)c1ccccc1)c1ccccc1.[Ti+4].[Ti+4] ?
Response: active

Prompt: And what about the molecule CCCCCCCCCCCCOCC[N+](CCO)(CCO)Cc1ccccc1 ?
Response: active

Prompt: And what about the molecule CCC(=O)NC1=CCC(C(C)(C)C)CC1 (centres undefined) ?
Response: inactive

Prompt: And what about the molecule N#CC(CCCCl)(c1ccccc1)c1ccccc1 ?
Response: inactive

Prompt: And what about the molecule COC1=C(Br)C(=O)N/C1=C(\OC)c1ccccc1 ?
Response: inactive

Prompt: And what about the molecule CC/C(C)=N/OC(=O)Nc1ccccc1 ?
Response: inactive

Prompt: And what about the molecule COc1ccc(C2CN(C(=O)c3ccccc3)N=C(c3ccccc3)O2)cc1 (centres undefined) ?
Response: inactive

Prompt: And what about the molecule CC1CCC2(CC1)OCC(C)O2 (centres undefined) ?
Response: inactive
